- ASSAY_SUMMARY: Selectivity index, ratio of CC25 for African green monkey Vero cells to IC25 for Herpes simplex virus 1 KOS
- Assay type: toxicity, cell-based
- SETUP_CONDITIONS: read-out: Selectivity Index
Below, each of the molecules is paired with its reported selectivity ratio value.
RESULT_TYPE: selectivity ratio

1. CCOC(=O)C1=C(C)NC(=O)NC1c1ccc(F)cc1 (stereo unspecified)	1
2. COC(=O)C1=C(C)NC(=S)NC1c1cccs1 (stereo unspecified)	> 1.1
3. CC1=C(C(=O)Nc2ccccc2Cl)C(c2ccccc2Br)NC(=O)N1 (stereo unspecified)	4.2
4. CC1=C(C(=O)Nc2ccccc2Cl)C(c2ccccc2Cl)NC(=S)N1 (stereo unspecified)	35
5. CC1=C(C(=O)Nc2ccc(Cl)cc2)C(c2cccs2)NC(=O)N1 (stereo unspecified)	7.1
6. CC1=C(C(=O)NC2CCCCC2)C(c2ccccc2)NC(=O)N1 (stereo unspecified)	38
7. CC1=C(C(=O)Nc2ccccc2Cl)C(c2cnc(CS)n2Nc2ccccc2)NC(=O)N1 (stereo unspecified)	< 1
8. CC1=C(C(=O)Nc2ccccc2Cl)C(c2cccs2)NC(=O)N1 (stereo unspecified)	3.9
9. COC(=O)C1=C(C)NC(=S)NC1c1ccc(Br)cc1 (stereo unspecified)	0.8
10. CC1=C(C(=O)Nc2cccc(Cl)c2)C(c2cccs2)NC(=O)N1 (stereo unspecified)	< 1
11. CC1=C(C(=O)Nc2ccccc2Cl)C(c2cccc([N+](=O)[O-])c2)NC(=O)N1 (stereo unspecified)	> 1000

* * *

- Tested on: Vero
- ASSAY_SUMMARY: Cytotoxicity against Chlorocebus aethiops (African green monkey) Vero cells after 72 hr by XTT assay
- Type: cell-based
- SETUP_CONDITIONS: chlorocebus sabaeus, vero, 72 h
Below, each of the molecules is paired with its reported CC25 value.
RESULT_TYPE: CC25 (µM)

1) CC1=C(C(=O)Nc2cccc(Cl)c2)C(c2cnc(CS)n2NCc2ccccc2)NC(=O)N1 (stereo unspecified)	100
2) CC1=C(C(=O)Nc2ccc(Cl)cc2)C(c2cccs2)NC(=O)N1 (stereo unspecified)	83.2
3) COC(=O)C1=C(C)NC(=O)NC1c1ccc(Br)cc1 (stereo unspecified)	12.3
4) CC1=C(C(=O)Nc2ccc(F)cc2)C(c2ccccc2)NC(=O)N1 (stereo unspecified)	43.8
5) CC1=C(C(=O)Nc2ccccc2Cl)C(c2ccc(Br)cc2)NC(=O)N1 (stereo unspecified)	84.3
6) CC1=C(C(=O)Nc2cccc(Cl)c2)C(c2cnc(CS)n2Nc2ccccc2)NC(=O)N1 (stereo unspecified)	71.1
7) CCOC(=O)C1=C(C)N=C(S)NC1c1cccs1 (stereo unspecified)	87.3
8) CCCOC(=O)C1=C(C)NC(=S)NC1c1cccs1 (stereo unspecified)	0.5
9) CC1=C(C(=O)NC2CCCCC2)C(c2ccccc2)NC(=O)N1 (stereo unspecified)	7.6
10) CC1=C(C(=O)OC(C)C)C(c2cccs2)NC(S)=N1 (stereo unspecified)	5.7

* * *

- ASSAY_SUMMARY: Selectivity index, ratio of CC25 for African green monkey Vero cells to IC25 for Herpes simplex virus 1 KOS
- Assay type: toxicity, cell-based
- SETUP_CONDITIONS: read-out: Selectivity Index
RESULT_TYPE: selectivity ratio

1. COC(=O)C1=C(C)NC(=O)NC1c1ccc(F)cc1 (configuration not stated)	1
2. COC(=O)C1=C(C)N(C)C(=O)NC1c1ccc(F)cc1 (configuration not stated)	1
3. CCCC1NC(=O)NC(C)=C1C(=O)OCC (configuration not stated)	1
4. CC1=C(C(=O)Nc2cccc(Cl)c2)C(c2cnc(CS)n2Nc2ccccc2)NC(=O)N1 (configuration not stated)	5.1
5. CC1=C(C(=O)Nc2ccccn2)C(c2cccs2)NC(=O)N1 (configuration not stated)	> 1
6. CC1=C(C(=O)Nc2cccc(Cl)c2)C(c2cnc(CS)n2NCc2ccccc2)NC(=O)N1 (configuration not stated)	1.8
7. COc1ccc(C2NC(=O)NC(C)=C2C(=O)Nc2ccccc2Cl)cc1 (configuration not stated)	25.1
8. CCOC(=O)C1=C(C)NC(=O)NC1c1cnc(CS)n1NCc1ccccc1 (configuration not stated)	1
9. CC1=C(C(=O)Nc2ccccc2Cl)C(c2ccc(Cl)cc2)NC(=O)N1 (configuration not stated)	> 625
10. CC1=C(C(=O)Nc2ccccc2Cl)C(c2ccc([N+](=O)[O-])cc2)NC(=O)N1 (configuration not stated)	> 167
11. CCCOC(=O)C1=C(C)NC(=S)NC1c1cccs1 (configuration not stated)	0.3
12. CC1=C(C(=O)OC(C)(C)C)C(c2cccs2)NC(=O)N1 (configuration not stated)	< 1

* * *

- ASSAY_SUMMARY: Therapeutic index, ratio of CC50 for African green monkey Vero cells to IC50 for Herpes simplex virus 1 KOS
- Format: cell-based
- SETUP_CONDITIONS: read-out: Ratio CC50/IC50
RESULT_TYPE: selectivity ratio

1. COc1ccc(C2NC(=O)NC(C)=C2C(=O)Nc2ccccc2Cl)cc1 (stereo unspecified)	> 1.5
2. CCOC(=O)C1=C(C)NC(=O)NC1c1cnc(CS)n1NCc1ccccc1 (stereo unspecified)	1
3. CC1=C(C(=O)Nc2ccccc2Cl)C(c2ccc(C)cc2)NC(=O)N1 (stereo unspecified)	> 10
4. CC1=C(C(=O)Nc2cccc(Cl)c2)C(c2cnc(CS)n2NCc2ccccc2)NC(=O)N1 (stereo unspecified)	> 1.4
5. CC1=C(C(=O)Nc2ccccc2Cl)C(c2ccccc2Br)NC(=O)N1 (stereo unspecified)	> 1.6
6. CC1=C(C(=O)Nc2ccccc2Cl)C(c2cccc([N+](=O)[O-])c2)NC(=O)N1 (stereo unspecified)	> 2.1

* * *

- Tested on: Vero
- ASSAY_SUMMARY: Cytotoxicity against Chlorocebus aethiops (African green monkey) Vero cells after 72 hr by XTT assay
- Type: cell-based
- SETUP_CONDITIONS: chlorocebus sabaeus, vero, 72 h
RESULT_TYPE: CC25

1. COC(=O)C1=C(C)NC(=S)NC1c1cccs1 (centres undefined)	Non-toxic
2. CCOC(=O)C1=C(C)NC(=O)NC1c1ccccc1 (centres undefined)	Non-toxic
3. CC1=C(C(=O)Nc2ccccc2Cl)C(c2ccc(C)cc2)NC(=O)N1 (centres undefined)	> 100 µM
4. CCOC(=O)C1=C(C)N(C)C(=O)NC1c1ccc(F)cc1 (centres undefined)	Non-toxic

* * *

- ASSAY_SUMMARY: Cytotoxicity against Chlorocebus aethiops (African green monkey) Vero cells after 72 hr by XTT assay
- Type: cell-based
- SETUP_CONDITIONS: chlorocebus sabaeus, Vero cells
Below, each of the molecules is paired with its reported CC50 at 72 h value.
RESULT_TYPE: CC50 at 72 h

1) CC1=C(C(=O)Nc2ccccc2Cl)C(C(C)c2ccccc2)NC(=O)N1 (configuration not stated)	91.5 µM
2) CC1=C(C(=O)OC(C)(C)C)C(c2cccs2)NC(=O)N1 (configuration not stated)	> 100 µM
3) COC(=O)C1=C(C)NC(=S)NC1c1ccc(Br)cc1 (configuration not stated)	97.2 µM
4) CC1=C(C(=O)Nc2ccccc2Cl)C(c2ccccc2Br)NC(=O)N1 (configuration not stated)	> 100 µM
5) CC1=C(C(=O)Nc2ccccc2Cl)C(c2cnc(CS)n2Nc2ccccc2)NC(=O)N1 (configuration not stated)	> 100 µM
6) CC1=C(C(=O)Nc2ccc(Cl)cc2)C(c2cnc(CS)n2Nc2ccccc2)NC(=O)N1 (configuration not stated)	> 100 µM
7) COC(=O)C1=C(C)NC(=O)NC1c1ccc(Br)cc1 (configuration not stated)	100 µM
8) CC1=C(C(=O)Nc2ccc(Br)cc2)C(c2ccccc2)NC(=O)N1 (configuration not stated)	> 100 µM
9) CCOC(=O)C1=C(C)N=C(S)NC1c1cccs1 (configuration not stated)	100 µM
10) CC1=C(C(=O)Nc2ccccc2Cl)C(c2cccc(Br)c2)NC(=O)N1 (configuration not stated)	> 100 µM
11) CC1=C(C(=O)Nc2ccccc2Cl)C(c2ccc(Br)cc2)NC(=O)N1 (configuration not stated)	> 100 µM
12) CC1=C(C(=O)Nc2cccc(Cl)c2)C(c2cnc(CS)n2NCc2ccccc2)NC(=O)N1 (configuration not stated)	> 100 µM
13) CCOC(=O)C1=C(C)NC(=S)NC1c1ccc(Br)cc1 (configuration not stated)	38.9 µM
14) CC1=C(C(=O)Nc2ccccc2Cl)C(c2ccc(C)cc2)NC(=O)N1 (configuration not stated)	> 100 µM
15) CC1=C(C(=O)Nc2ccccc2Cl)C(c2cnc(CS)n2NCc2ccccc2)NC(=O)N1 (configuration not stated)	> 100 µM
16) CC1=C(C(=O)NC2CCCCC2)C(c2ccccc2)NC(=O)N1 (configuration not stated)	> 100 µM
17) CC1=C(C(=O)Oc2ccccc2)C(c2ccccc2)NC(=O)N1 (configuration not stated)	> 100 µM
18) CC1=C(C(=O)Nc2ccccc2Cl)C(c2cccs2)NC(=O)N1 (configuration not stated)	> 100 µM
19) COc1ccc(C2NC(=O)NC(C)=C2C(=O)Nc2ccccc2Cl)cc1 (configuration not stated)	> 100 µM
20) CCCOC(=O)C1=C(C)NC(=S)NC1c1cccs1 (configuration not stated)	23.6 µM
21) CC1=C(C(=O)Nc2ccccc2Cl)C(c2ccccc2Cl)NC(=S)N1 (configuration not stated)	> 100 µM
22) CC1=C(C(=O)Nc2ccccn2)C(c2cccs2)NC(=O)N1 (configuration not stated)	> 100 µM
